biological target: GCS enzyme (glucosylceramide synthase) contained within Golgi preparations isolated from human A375 malignant melanoma skin cells (Homo sapiens (Human)); experiment: UDP-Glo glucosylceramide synthase biochemical assay; settings: 1.5 μg crude golgi preparation from A375 cells; C6 ceramide and UDP-glucose at 2×Km; 20 h incubation at room temperature; UDP detected by luminescence
Sequence (Q16739 whole entry): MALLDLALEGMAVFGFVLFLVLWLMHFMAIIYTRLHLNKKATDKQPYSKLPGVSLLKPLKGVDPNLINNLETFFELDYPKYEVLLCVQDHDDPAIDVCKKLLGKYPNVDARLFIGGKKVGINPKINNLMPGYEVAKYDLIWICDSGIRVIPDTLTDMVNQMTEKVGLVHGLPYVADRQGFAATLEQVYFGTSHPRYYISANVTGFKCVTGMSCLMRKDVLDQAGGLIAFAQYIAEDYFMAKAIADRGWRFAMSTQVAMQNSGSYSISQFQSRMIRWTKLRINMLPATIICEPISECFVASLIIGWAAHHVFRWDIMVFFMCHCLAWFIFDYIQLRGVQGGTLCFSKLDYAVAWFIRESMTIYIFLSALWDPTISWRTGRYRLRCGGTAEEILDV
Listing of entries alongside the reported pEC50.
Hey, just a heads up that pEC50 is the negative log base 10 of the concentration in molar.

Take a look at these entries with their results.
* O=C(NC1CN2CCC1CC2)c1cc2cc(Cl)cc(-c3ccccc3OCCF)c2o1 (racemic) | 10.70
* CCCCOc1ccccc1-c1cccc2cc(C(=O)NC3CN4CCC3CC4)oc12 (racemic) | 10.68
* CC(C)Oc1ccc(C#N)cc1-c1cc(F)cc2cc(C(=O)N[C@H]3C[C@@H](O)C3)oc12 | 10.00

Switching to the query record.
Exercise: What value of measured pEC50 is listed for Cc1nn(C)c(C)c1-c1cccc2cc(C(=O)NC3CN4CCC3CC4)oc12 (racemic) ?
Key: 8.62
